The measurements presented in this section are drawn from BigSolDB 2.1.

settings: in MIBK, 327.95 K
Experimental endpoint: solubility (mole fraction)

INSERT INTO measurements (smiles_record, numeric_result) VALUES
  ('CC(=O)Oc1ccccc1C(=O)O', 0.0897);

====

conditions: in n-propanol, 307.06 K
Experimental endpoint: solubility (mole fraction)

INSERT INTO results (smiles_record, experimental_endpoint, result) VALUES
  ('CC(=O)Oc1ccccc1C(=O)O', 'solubility (mole fraction)', 0.0632);

====

settings: in ethyl acetate, 308.76 K
Experimental endpoint: solubility (mole fraction)

INSERT INTO assay_data (smiles_record, numeric_result) VALUES
  ('O=C(O)c1ccccc1', 0.206);
